experiment: NCI Yeast Anticancer Drug Screen. Data for the mec2-1 strain (AID 157); details: S. cerevisiae mec2-1 strain, at 50.0 µM, stronger effect = higher value
About 79,000 compounds went through this panel and 15% of them were active in at least one assay; those are over-represented in the sample as a whole. *1 amine or outer side, *2 acyl side, *3 side chain or, on linkers, in order; H or OH if unused. Where a SMILES comes first, the peptide text is derived from it. Bridges are numbered along the chain shown (N, C = ends). [ ]: non-standard residue; d: D form. The star is where a group is joined. X16 = CC(C)C(C)C(C(=O)[*:2])N(C)[*:1]; Picolinoyl(3-OH) = O=C(c1ncccc1O)*; NMePhg = CN[CH](C(=O)O)c1ccccc1; Hyp = O=C(O)[CH]1C[CH](O)CN1; Sar = CNCC(=O)O
observation-type: growth inhibition (%)

molecule	measured
Nc1ncnc2c1ccn2C1OC2COP(=O)(O)OC2C1O (configuration not stated)	-31.4
CC(C)=C1C(=O)N(C)C(=O)C1C(N)=O (configuration not stated)	1.85
CC1=NN(C(=O)c2ccc(Cl)cc2)C(=O)/C1=C/c1ccco1	-28.9
CCCCn1c(N)n[nH]c1=S	8.55
COc1cc2c(cc1OC)C(CC(=O)NN=C(C)C)NCC2 (configuration not stated)	-19.6
CC(CC[C@@]1(C)C(=O)CCC2O[C@]21C)[C@H]1C[C@@H](c2ccoc2)OC1=O (some centres not stated)	-31.8
O=[N+]([O-])c1ccc(-c2ccccc2-c2ccccc2)cc1	-2.8
CC(C)CC1NC(=O)C(NC(=O)c2ncccc2O)C(C)OC(=O)C(c2ccccc2)N(C)C(=O)C(C)NC(=O)C(C(C)C(C)C)N(C)C(=O)CN(C)C(=O)C2CC(O)CN2C1=O (configuration not stated) ({Picolinoyl(3-OH)}-TL[Hyp][Sar][X16]A[NMePhg]; ester 1-C; configuration not given here)	3.65
CC(=O)CC(=O)Nc1cccc(O)c1	-21.8
CC(=O)OC1c2ccccc2Cc2ccccc21	26.3
C=C(Cl)COc1ccc(-c2ccccc2)cc1	6.9
COc1ccc2c(c1)OCCN(C)OC2c1cccc(Cl)c1 (configuration not stated)	-6.45
CC[n+]1ccc2cc(OC)c(OC)cc2c1Cc1ccc(OC)c(OC)c1	-5.55
[NH-]c1ncnc2c1N=C[N+]2=CC=CCO	-17
CC(C)(C)OC(=O)NC1CCCCC1NC(=O)C(=O)NC1CCCCC1NC(=O)OC(C)(C)C (configuration not stated)	-18.7
O=C(O)Cc1nc(Cl)ccc1Cl	-7.2
N#CC1=C(S)N(C2OC(CO)C(O)C(O)C2O)C(c2ccccc2)=CC1c1ccco1 (configuration not stated)	13
COc1ccc2nc(N(C)C)cc(N(C)C)c2c1	5.6
Cc1c(NC=O)c(=O)n(-c2ccccc2)n1C	-33
S=C(N1CCN(c2cccc(Cl)c2)CC1)N1CCN(c2cccc(Cl)c2)CC1	13.7
O=C1CN(Cc2ccc(Cl)cc2)CC(=O)N2CCCN12	8
Cc1cc(N=Nc2cc(Br)cc(Br)c2)cc(C)c1N	1.3

###

experiment: NCI Yeast Anticancer Drug Screen. Data for the bub3 strain (AID 167); conditions: S. cerevisiae bub3 mutant strain, at 50.0 µM, stronger effect = higher value
Compounds without any hit were thinned out: in the full panel of roughly 79,000, 15% have a hit. Active and inactive are the calls of the source. Cut-off read from the data, not from the text of the source: active = growth inhibition above about 70%; inactive = the rest.
Item-by-item account of growth inhibition
observation-type: growth inhibition

compound	measured
CC(=O)OCC1OC(n2c(=O)n(-c3ccccc3)c(=O)c3ccccc32)C(OC(C)=O)C(OC(C)=O)C1OC(C)=O (configuration not stated)	-6.85% (inactive)
O=[N+]([O-])c1ccc2nc(/C=C(\O)c3ccccc3)c(/C=C(\O)c3ccc(Cl)cc3)nc2c1	-62.1% (inactive)
CN(C)Cc1cc(N=Nc2ccc(Cl)cc2)ccc1O	36.5% (inactive)
CC(=O)OC(CCN(C)C)c1ccccc1 (configuration not stated)	24% (inactive)
COC1OC(COC(=O)c2ccccc2)C(SC(=O)c2ccccc2)C1OC(=O)c1ccccc1 (configuration not stated)	-1.4% (inactive)
CCC(C(=O)O)c1cccc2c(C)ccc(C)c12 (configuration not stated)	7.7% (inactive)
CCOC(=O)c1c(NC2=NCCC2)n[nH]c1N	-18.6% (inactive)
NCCCCCS(=O)(=O)O	-0.65% (inactive)
COc1cc(NC(C)=O)c2[nH]c3c(C)cc(NC(C)=O)c(C)c3c2c1	-27.6% (inactive)
Cc1cc(C)c([N+](=O)[O-])c(N)n1	1.2% (inactive)
Nc1cccc(S(=O)(=O)Nc2ccccc2)c1	0.65% (inactive)
Cc1ccc(N=Nc2c(O)ccc3n[nH]nc23)cc1	18.9% (inactive)

Entry source: PubChem BioAssay (NCI)
